biological target: TYK2 kinase domain (Homo sapiens (Human)); assay: TYK2 inhibition assay (Caliper LabChip, isolated kinase domain); settings: 25 uM ATP, 1 nM TYK2; read-out: TYK2 enzymatic activity (Ki)
Sequence (P29597 873-1187): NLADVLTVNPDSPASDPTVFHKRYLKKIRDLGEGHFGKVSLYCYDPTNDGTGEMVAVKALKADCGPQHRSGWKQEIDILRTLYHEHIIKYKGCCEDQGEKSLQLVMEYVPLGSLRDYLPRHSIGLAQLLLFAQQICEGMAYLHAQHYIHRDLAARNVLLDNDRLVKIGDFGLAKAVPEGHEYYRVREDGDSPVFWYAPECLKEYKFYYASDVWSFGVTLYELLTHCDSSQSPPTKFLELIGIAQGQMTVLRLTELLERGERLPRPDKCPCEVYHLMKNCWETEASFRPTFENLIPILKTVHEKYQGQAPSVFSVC
Examples of compounds with documented pKi follow.
# log scale: pKi equals minus log10 of the concentration in mol/L

Please review the following examples before continuing.
COc1ccc(Cl)cc1-c1nn(CC(=O)N2CCCC2C)cc1NC(=O)c1cnn2cccnc12 (stereo not shown)    8.04
O=C(Nc1ccnn1-c1ccccc1Cl)c1cnn2cccnc12    7.01
COc1ccc(Cl)cc1-c1c(NC(=O)c2c(N)nn3cccnc23)cnn1CC(N)=O    8.64

Shift focus to the following entry.
Given CCOc1ccc(Cl)cc1-c1nn([C@H]2CCCC[C@@H]2O)cc1NC(=O)c1cnn2cccnc12 (stereo in doubt) , state its recorded pKi.
7.12

----------
biological target: JAK1 kinase domain (Homo sapiens (Human)); test: JAK1 inhibition assay (Caliper LabChip, isolated kinase domain); format: biochemical; conditions: 25 uM ATP, 1.5 nM JAK1; read-out: JAK1 enzymatic activity (Ki)
Sequence (P23458 852-1154): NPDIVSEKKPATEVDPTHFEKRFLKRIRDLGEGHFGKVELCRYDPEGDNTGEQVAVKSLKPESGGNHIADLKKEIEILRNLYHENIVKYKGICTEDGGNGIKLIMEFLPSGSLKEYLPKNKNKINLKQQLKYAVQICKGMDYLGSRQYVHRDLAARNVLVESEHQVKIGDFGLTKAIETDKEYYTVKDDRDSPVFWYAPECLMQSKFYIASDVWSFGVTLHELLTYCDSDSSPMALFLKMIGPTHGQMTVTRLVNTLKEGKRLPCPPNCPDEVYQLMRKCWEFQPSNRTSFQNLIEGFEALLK
Reported pKi values are given for each entry in this list.
Interpret pKi as the negative base-10 log of the concentration measured in mol/L.

COc1ccc(Cl)cc1-c1c(NC(=O)c2c(N)nn3cccnc23)cnn1CC(N)=O    8.68

Hello, I am looking for reported pKi with JAK1 kinase domain (Homo sapiens (Human)) for Cc1cc(NC(=O)c2cnn3cccnc23)n(-c2cc(Cl)ccc2C)n1 . Could you help?
7.34

Param readout = pKi; param system = JAK1 kinase domain (Homo sapiens (Human)); param query = COc1ccc(Cl)cc1-c1nc(C)sc1NC(=O)c1cnn2cccnc12 ; response: value
9.15

Field: pKi (JAK1 kinase domain (Homo sapiens (Human))). Entry: COc1ccc(Cl)cc1-c1nn(CC(=O)N2CCCC2C)cc1NC(=O)c1cnn2cccnc12 (stereo not drawn)
9.15

Give JAK1 kinase domain (Homo sapiens (Human)) pKi for COc1ccc(C#N)cc1-c1nn(Cc2ncnn2C)cc1NC(=O)c1cnn2cccnc12
8.38

Fill in the recorded pKi for this compound, with JAK1 kinase domain (Homo sapiens (Human)) as test system: COc1ccc(Cl)cc1-c1nn(CC(=O)N2CC=CCC2)cc1NC(=O)c1cnn2cccnc12
9.30

Form field - read-out: pKi; system: JAK1 kinase domain (Homo sapiens (Human)); submitted item: COc1ncc(C#N)cc1-c1n[nH]cc1NC(=O)c1cnn2cccnc12
8.32

Query pKi on JAK1 kinase domain (Homo sapiens (Human)) for CC1CCCCN1c1nn(CC(C)(C)O)cc1NC(=O)c1cnn2cccnc12 (stereo not drawn)
7.07

----------
target: JAK3 kinase domain (Homo sapiens (Human), UniProt P52333); assay: JAK3 inhibition assay (Caliper LabChip, isolated kinase domain); type: biochemical; conditions: 5 uM ATP, 5 nM JAK3; read-out: JAK3 enzymatic activity (Ki)
Sequence (P52333 783-1124): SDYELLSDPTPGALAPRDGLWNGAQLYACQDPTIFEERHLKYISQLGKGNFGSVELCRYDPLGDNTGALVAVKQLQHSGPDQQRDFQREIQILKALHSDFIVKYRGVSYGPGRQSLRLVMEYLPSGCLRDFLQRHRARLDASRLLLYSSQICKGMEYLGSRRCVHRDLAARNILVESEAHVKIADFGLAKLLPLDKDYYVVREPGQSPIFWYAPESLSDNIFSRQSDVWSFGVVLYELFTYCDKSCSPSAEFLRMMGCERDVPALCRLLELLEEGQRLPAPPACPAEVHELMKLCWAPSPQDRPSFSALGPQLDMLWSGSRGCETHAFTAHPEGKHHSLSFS
value.kind: Ki (nM)
Report only the number, with the unit nM understood.

The examples below pair each entry with its known result.
COc1ccc(Cl)cc1-c1c(NC(=O)c2cnn3cccnc23)cnn1CCO    18
COc1ccc(C#N)cc1-c1nn(CC2(O)CCCC2)cc1NC(=O)c1cnn2cccnc12    690
COc1ccc(C#N)cc1-c1nn(Cc2ncnn2C)cc1NC(=O)c1cnn2cccnc12    210
CC1CCCCN1c1nn(CC(C)(C)O)cc1NC(=O)c1cnn2cccnc12 (stereo not drawn)    240
COc1cnc(C(F)(F)F)cc1-c1nn(CC(C)(C)O)cc1NC(=O)c1cnn2cccnc12    1500

# ---- query compound ----
// fetch JAK3 kinase domain (Homo sapiens (Human), UniProt P52333) Ki for COc1ccc(Cl)cc1-c1c(NC(=O)c2c(N)nn3cccnc23)cnn1CC(N)=O
5.5
